Source of measurements: patent US20240407361A1

# Test system: Lettuce Lactuca sativa “volare”
# Protocol Description: Organosulfur compounds on lettuce, seed drench (Example 9)
# Type: in vivo
# Condition Notes: seed drench, 1000× diluted emulsion, control = emulsifier solution = 100
Metric: Relative fresh weight/plant compared to control (%)
Form entry: value (%) — number only.

Data request: Need Relative fresh weight/plant compared to control (%), item CCCSSCCC [Di-propyl disulfide]
Data returned: 110

Data request: Entry CCCSS(=O)(=O)CCC [PTSO, di-n-propyl thiosulfonate] please
Data returned: 113

Data request: Entry O=S(=O)(Sc1ccccc1)c1ccccc1 [Di-phenyl thiosulfonate, di-phenyl thiosulfonate] please
Data returned: 103

Data request: Entry CSS(C)(=O)=O [Di-methyl thiosulfonate, di-methyl thiosulfonate] please
Data returned: 120

----------
Kindly supply the reported Added harvest (weight) per plant compared to control (%) values for the records listed here.
# System: Lettuce Lactuca sativa “volare”
# Protocol Description: Organosulfur compounds on lettuce, seed drench (Example 9)
# Format: in vivo
# Condition Notes: seed drench, 1000× diluted emulsion
Form entry: value (%) — number only.

Data request: Need Added harvest (weight) per plant compared to control (%), item CSS(C)(=O)=O [Di-methyl thiosulfonate, di-methyl thiosulfonate]
Data returned: 20

Data request: Entry O=S(=O)(Sc1ccccc1)c1ccccc1 [Di-phenyl thiosulfonate, di-phenyl thiosulfonate] please
Data returned: 3

Data request: Entry CCCSSCCC [Di-propyl disulfide] please
Data returned: 10

Data request: Entry CCCSS(=O)(=O)CCC [PTSO, di-n-propyl thiosulfonate] please
Data returned: 13

----------
# System: Lettuce Lactuca sativa “volare”
# Protocol Description: Organosulfur compounds on lettuce, seed drench (Example 9)
# Format: in vivo
# Condition Notes: seed drench, 1000× diluted emulsion, control = 100
Kindly supply the reported Root formation (%) compared to control values for the records listed here.
Form entry: value (%) — number only.

Data request: Need Root formation (%) compared to control, item CSS(C)(=O)=O [Di-methyl thiosulfonate, di-methyl thiosulfonate]
Data returned: 115

Data request: Entry CCCSS(=O)(=O)CCC [PTSO, di-n-propyl thiosulfonate] please
Data returned: 110

Data request: Entry O=S(=O)(Sc1ccccc1)c1ccccc1 [Di-phenyl thiosulfonate, di-phenyl thiosulfonate] please
Data returned: 93.9

Data request: Entry CCCSSCCC [Di-propyl disulfide] please
Data returned: 109
